IC50 values by entry
- TGT: Mannose-6-phosphate isomerase (Homo sapiens)
- Sequence (P34949 whole entry): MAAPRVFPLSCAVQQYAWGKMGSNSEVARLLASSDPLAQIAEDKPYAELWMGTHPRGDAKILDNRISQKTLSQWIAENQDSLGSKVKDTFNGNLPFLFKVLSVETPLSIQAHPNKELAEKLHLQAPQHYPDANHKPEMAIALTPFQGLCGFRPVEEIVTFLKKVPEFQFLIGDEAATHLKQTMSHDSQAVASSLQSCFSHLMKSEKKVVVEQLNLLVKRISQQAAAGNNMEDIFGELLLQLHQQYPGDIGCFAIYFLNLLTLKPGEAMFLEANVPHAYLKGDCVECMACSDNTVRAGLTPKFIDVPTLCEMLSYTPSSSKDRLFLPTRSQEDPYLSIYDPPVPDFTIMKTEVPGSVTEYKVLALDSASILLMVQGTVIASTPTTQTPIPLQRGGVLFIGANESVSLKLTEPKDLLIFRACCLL
- TEST NAME: MPI inhibition at elevated mannose 6-phosphate – biochemical, fluorescence intensity, high mannose 6-phosphate, primary screen (AID 1220)
Active and inactive are the calls of the source. Cut-off read from the data, not from the text of the source: actives have a measured IC50 and inactives only a lower limit.

Example results:
| COMPOUND | TGT | MEASURED VALUE |
| --- | --- | --- |
| COC(=O)C1=C(C(=O)OC)SC(=C2C(=S)C(C)(C)N(C(=O)C(C)C)c3ccccc32)S1 | Mannose-6-phosphate isomerase (Homo sapiens) | 7.38 µM (active) |
| Cc1cccc(CSc2nc3c(c(-c4cccs4)c2C#N)CN(C)CC3)c1 | Mannose-6-phosphate isomerase (Homo sapiens) | > 50 µM (not active) |
| CCC(=O)OCCNc1cc(SCCC(=O)OC)c2nonc2c1[N+](=O)[O-] | Mannose-6-phosphate isomerase (Homo sapiens) | > 50 µM (not active) |
| CCOc1cc2c(C#N)c(N3CCNCC3)nc(N)c2c(N)n1 | Mannose-6-phosphate isomerase (Homo sapiens) | > 50 µM (not active) |
| O=C(O)CC1S/C(=N/N=C/c2ccc(-c3ccccc3[N+](=O)[O-])o2)NC1=O (configuration not stated) | Mannose-6-phosphate isomerase (Homo sapiens) | > 50 µM (not active) |
| Cc1ccc(/N=C/c2cccc(O)c2O)c(C)c1 | Mannose-6-phosphate isomerase (Homo sapiens) | 14 µM (active) |

Okay, now this compound:
Request the reported IC50 associated with COc1ccc(O)c(/C=N/c2sc(C)c(C)c2C#N)c1 > 50 µM (not active)
